For each entry below, report its IC50 value.
biological target: Urokinase (Abbokinase), manufactured by Abbott Laboratories (UniProt P00749 156-431); assay: cell-based or functional assay
Non-standard residues stand in square brackets, D forms with d. Primed or numbered codes have the meaning given here. No end group written: not given here. *: point of attachment. Argininal = arginine aldehyde, N=C(N)NCCC[C@@H](C=O)N*; argininal = arginine aldehyde, N=C(N)NCCC[C@@H](C=O)N*; aldehyde′ = argininal (arginine aldehyde) C-terminus

query: Note IC50 for the binder shown: {(−)menthyloxycarbonyl}-[dS]-Ala-[Argininal] [(-)menthyloxy-carbonyl-D-seryl-alanyl-argininal]
result: < 100 nM

query: Note IC50 for the binder shown: {trans‑β‑styrenesulfonyl}-[dS]-Ala-[argininal] [trans-β-Styrenesulfonyl-D-seryl-L-alanyl-argininal]
result: < 100 nM

query: Note IC50 for the binder shown: {3‑phenylpropylsulfonyl}-[dS]-Ala-Arg-{aldehyde′} [3-phenylpropylsulfonyl-D-seryl-alanyl-argininal]
result: < 100 nM
